This collection of values is drawn from patent US5554631A.

Test system: acidity
measurement description: Inhibition of acidity (total acid output), Shay method
Format: in vivo, SD male rats
measurement parameters: 10 mg/kg, intraduodenal, rat, 5 h, vs normal group
Label fulfilled when Inhibition rate, acidity < 80%; otherwise not fulfilled.

- compound: "COc1ccnc(C[S+]([O-])c2nc3cc(-n4cccc4)c(F)cc3[nH]2)c1C (stereo not drawn)"
  group: "fulfilled"
- compound: "COc1ccc2[nH]c([S+]([O-])Cc3ncc(C)c(OC)c3C)nc2c1 (stereo not drawn)"
  group: "not fulfilled"
- compound: "COc1ccnc(C[S+]([O-])c2nc3cc(-n4c(C)ccc4C)c(F)cc3[nH]2)c1 (stereo not drawn)"
  group: "fulfilled"
- compound: "CCOc1ccnc(C[S+]([O-])c2nc3cc(-n4cccc4)c(F)cc3[nH]2)c1C (stereo not drawn)"
  group: "fulfilled"
- compound: "COc1c(C)cnc(C[S+]([O-])c2nc3cc(-n4c(C)ccc4C)c(F)cc3[nH]2)c1C (stereo not drawn)"
  group: "fulfilled"
- compound: "COc1ccnc(C[S+]([O-])c2nc3cc(-n4c(C)ccc4C)c(F)cc3[nH]2)c1C (stereo not drawn)"
  group: "not fulfilled"

###

Inhibition rate, gastric juice secretion by entry:
Test system: gastric juice secretion
measurement description: Inhibition of gastric juice secretion, Shay method
Type: in vivo, SD male rats
measurement parameters: 10 mg/kg, intraduodenal, rat, 5 h, vs normal group

- compound: "COc1ccnc(C[S+]([O-])c2nc3cc(-n4c(C)ccc4C)c(F)cc3[nH]2)c1C (stereo not drawn)"
  target or test system: "gastric juice secretion"
  display unit: "%"
  Inhibition rate, gastric juice secretion: 60.87
- compound: "COc1ccnc(C[S+]([O-])c2nc3cc(-n4cccc4)c(F)cc3[nH]2)c1C (stereo not drawn)"
  target or test system: "gastric juice secretion"
  display unit: "%"
  Inhibition rate, gastric juice secretion: 53.37
- compound: "COc1c(C)cnc(C[S+]([O-])c2nc3cc(-n4c(C)ccc4C)c(F)cc3[nH]2)c1C (stereo not drawn)"
  target or test system: "gastric juice secretion"
  display unit: "%"
  Inhibition rate, gastric juice secretion: 33.70
- compound: "COc1ccnc(C[S+]([O-])c2nc3cc(-n4c(C)ccc4C)c(F)cc3[nH]2)c1 (stereo not drawn)"
  target or test system: "gastric juice secretion"
  display unit: "%"
  Inhibition rate, gastric juice secretion: 53.62
- compound: "CCOc1ccnc(C[S+]([O-])c2nc3cc(-n4cccc4)c(F)cc3[nH]2)c1C (stereo not drawn)"
  target or test system: "gastric juice secretion"
  display unit: "%"
  Inhibition rate, gastric juice secretion: 42.40
- compound: "COc1ccc2[nH]c([S+]([O-])Cc3ncc(C)c(OC)c3C)nc2c1 (stereo not drawn)"
  target or test system: "gastric juice secretion"
  display unit: "%"
  Inhibition rate, gastric juice secretion: 54.29

###

target or test system: H^+ /K^+ -ATPase (Oryctolagus cuniculus)
Construct: The gastric mucous membrane was removed from rabbit; from tissue; host or cells: rabbit gastric mucosa, microsomal fraction (77,000 xg)
Sequence (P27112 2-1035 limits assumed): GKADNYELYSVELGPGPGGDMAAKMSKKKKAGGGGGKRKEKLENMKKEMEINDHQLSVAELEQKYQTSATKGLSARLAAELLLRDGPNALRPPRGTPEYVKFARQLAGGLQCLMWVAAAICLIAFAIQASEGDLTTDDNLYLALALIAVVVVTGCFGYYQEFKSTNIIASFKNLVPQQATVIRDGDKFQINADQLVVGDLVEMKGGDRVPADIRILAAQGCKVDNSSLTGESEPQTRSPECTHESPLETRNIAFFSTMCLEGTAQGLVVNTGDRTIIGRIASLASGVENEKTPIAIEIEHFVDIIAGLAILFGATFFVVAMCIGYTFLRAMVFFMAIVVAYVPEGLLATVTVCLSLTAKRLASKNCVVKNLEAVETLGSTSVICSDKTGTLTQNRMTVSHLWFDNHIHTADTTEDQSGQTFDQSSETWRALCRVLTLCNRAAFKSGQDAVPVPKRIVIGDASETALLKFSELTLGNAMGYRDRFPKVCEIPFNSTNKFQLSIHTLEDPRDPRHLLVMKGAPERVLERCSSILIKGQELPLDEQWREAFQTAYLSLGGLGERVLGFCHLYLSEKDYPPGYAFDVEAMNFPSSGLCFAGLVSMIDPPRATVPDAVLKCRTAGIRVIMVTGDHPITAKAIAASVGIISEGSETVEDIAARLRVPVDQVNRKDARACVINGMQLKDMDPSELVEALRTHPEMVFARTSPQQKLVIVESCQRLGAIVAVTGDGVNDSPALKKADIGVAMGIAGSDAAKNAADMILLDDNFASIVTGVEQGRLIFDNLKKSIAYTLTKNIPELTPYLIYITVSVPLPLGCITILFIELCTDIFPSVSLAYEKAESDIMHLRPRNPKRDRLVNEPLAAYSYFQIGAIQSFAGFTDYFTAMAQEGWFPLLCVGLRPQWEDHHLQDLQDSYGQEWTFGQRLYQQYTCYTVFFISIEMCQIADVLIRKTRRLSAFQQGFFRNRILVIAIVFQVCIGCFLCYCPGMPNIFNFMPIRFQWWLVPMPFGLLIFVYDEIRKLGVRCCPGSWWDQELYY
Sequence (P18597 whole entry partner): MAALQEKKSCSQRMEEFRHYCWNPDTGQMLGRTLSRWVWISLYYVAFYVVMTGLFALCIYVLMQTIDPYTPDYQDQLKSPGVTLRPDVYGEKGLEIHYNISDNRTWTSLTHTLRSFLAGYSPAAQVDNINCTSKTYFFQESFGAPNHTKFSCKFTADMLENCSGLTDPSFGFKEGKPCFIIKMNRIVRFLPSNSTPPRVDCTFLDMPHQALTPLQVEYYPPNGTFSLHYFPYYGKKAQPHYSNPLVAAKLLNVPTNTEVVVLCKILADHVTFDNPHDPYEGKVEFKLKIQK
measurement description: Inhibition of H+/K+-ATPase enzyme activity in vitro
Type: biochemical, rabbit
measurement parameters: rabbit gastric microsomal H+/K+-ATPase, 5 min pre-incubation at 37° C., 4 mM ATP; read-out: IC50
pIC50: −log10 of the molar value. Where a name gives a salt, the structure may show the parent alone.
The threshold is inclusive: pIC50 of exactly 4 counts as True; values below receive False.

- compound: "Cc1c(OCC(F)(F)C(F)(F)F)ccnc1CS(=O)(=O)c1nc2cc(-n3cccc3)c(F)cc2[nH]1"
  target or test system: "H^+ /K^+ -ATPase (Oryctolagus cuniculus)"
  group: "False"
- compound: "Cc1cnc(C[S+]([O-])c2nc3cc(-n4c(C)ccc4C)c(F)cc3[nH]2)c(C)c1OCC(F)(F)F (stereo not shown)"
  target or test system: "H^+ /K^+ -ATPase (Oryctolagus cuniculus)"
  group: "False"
- compound: "CCOc1ccnc(C[S+]([O-])c2nc3cc(-n4cccc4)c(F)cc3[nH]2)c1C (stereo not shown)"
  target or test system: "H^+ /K^+ -ATPase (Oryctolagus cuniculus)"
  group: "True"
- compound: "COc1ccnc(C[S+]([O-])c2nc3cc(-n4cccc4)c(F)cc3[nH]2)c1C (stereo not shown) [Compound 2]"
  target or test system: "H^+ /K^+ -ATPase (Oryctolagus cuniculus)"
  group: "True"
- compound: "Cc1ccc(C)n1-c1cc2nc([S+]([O-])Cc3ccccn3)[nH]c2cc1F (stereo not shown)"
  target or test system: "H^+ /K^+ -ATPase (Oryctolagus cuniculus)"
  group: "False"
- compound: "COc1ccnc(C[S+]([O-])c2nc3cc(-n4c(C)ccc4C)c(F)cc3[nH]2)c1OC (stereo not shown)"
  target or test system: "H^+ /K^+ -ATPase (Oryctolagus cuniculus)"
  group: "False"
- compound: "COc1c(C)cnc(C[S+]([O-])c2nc3cc(-n4cccc4)c(F)cc3[nH]2)c1C (stereo not shown)"
  target or test system: "H^+ /K^+ -ATPase (Oryctolagus cuniculus)"
  group: "False"
- compound: "COc1ccnc(C[S+]([O-])c2nc3cc(-n4cccc4)c(F)cc3[nH]2)c1OC (stereo not shown)"
  target or test system: "H^+ /K^+ -ATPase (Oryctolagus cuniculus)"
  group: "False"
- compound: "COc1ccnc(C[S+]([O-])c2nc3cc(-n4c(C)ccc4C)c(F)cc3[nH]2)c1 (stereo not shown)"
  target or test system: "H^+ /K^+ -ATPase (Oryctolagus cuniculus)"
  group: "False"
- compound: "COc1ccnc(C[S+]([O-])c2nc3cc(-n4c(C)ccc4C)c(F)cc3[nH]2)c1C (stereo not shown) [Compound 16]"
  target or test system: "H^+ /K^+ -ATPase (Oryctolagus cuniculus)"
  group: "True"
- compound: "COc1c(C)cnc(C[S+]([O-])c2nc3cc(-n4c(C)ccc4C)c(F)cc3[nH]2)c1C (stereo not shown)"
  target or test system: "H^+ /K^+ -ATPase (Oryctolagus cuniculus)"
  group: "True"
- compound: "Cc1cnc(C[S+]([O-])c2nc3cc(-n4cccc4)c(F)cc3[nH]2)c(C)c1OCC(F)(F)C(F)(F)F (stereo not shown)"
  target or test system: "H^+ /K^+ -ATPase (Oryctolagus cuniculus)"
  group: "False"
- compound: "COc1ccnc(C[S+]([O-])c2nc3cc(-n4cccc4)c(F)cc3[nH]2)c1 (stereo not shown)"
  target or test system: "H^+ /K^+ -ATPase (Oryctolagus cuniculus)"
  group: "False"
- compound: "COc1cc(C[S+]([O-])c2nc3cc(-n4c(C)ccc4C)c(F)cc3[nH]2)ncc1C (stereo not shown)"
  target or test system: "H^+ /K^+ -ATPase (Oryctolagus cuniculus)"
  group: "True"
- compound: "COc1ccnc(C[S+]([O-])c2nc3cc(-n4cccc4)c(F)cc3[nH]2)c1C (stereo not shown) [Compound 24, sodium salt]"
  target or test system: "H^+ /K^+ -ATPase (Oryctolagus cuniculus)"
  group: "True"
